Assay: in vitro
Settings: human, hela cells, % viability
Define the label as Met when viability at 28.5 h, 10 µM is strictly less than 90% and as Not met in all remaining cases.

# count of solved cases: 3
O=C(Cc1ccc(-c2ccccc2)cc1)NCc1cccnc1	Met
Cc1noc(C)c1S(=O)(=O)NC1CCN(Cc2ccccc2)CC1	Met
Cc1cc(NC(=O)Cn2nc(C(F)(F)F)c(Cl)c2C)no1	Met

--- query ---
INPUT: Given the entry `Oc1ccc(/C=N/c2ccc(O)c(-c3nc4ccccc4s3)c2)cc1O` , would its reported viability at 28.5 h, 10 µM be below 90%?
OUTPUT: Not met

---

Listing of entries alongside the reported viability at 28.5 h, 10 µM.
Assay: in vitro
Conditions: human, hela cells, % viability
# value in %; strip the unit string

# count of solved cases: 8
COc1ccc(-n2ncc3c2CC(C)(C)CC3NS(C)(=O)=O)cc1 (centres unmarked)	88.7
O=C(Cc1c(Cl)cccc1Cl)Nc1ccc2[nH]ccc2c1	113
COc1ccc(Cn2c(C3CCNCC3)cc3cccnc32)cc1	96.1
O=c1[nH]c(=O)c2nnc(N/N=C\c3ccc(O)cc3)nc2[nH]1	94.1
Cc1nc(-c2cccnc2)[nH]c(=O)c1CC(=O)N1CCSCC1	90.7
COc1ccc(CC(=O)NC2CC(C)(C)Cc3c2cnn3C)cc1 (centres unmarked)	99
Nc1cccc(-c2cncc(NCC3CCOCC3)n2)c1	96.8
Cc1nc[nH]c1CN(Cc1cccc(F)c1)CC1CCCO1 (centres unmarked)	105

INPUT: Supply measured viability at 28.5 h, 10 µM of `O=C(O)c1ccc2c(c1)C(=O)N(C1=NCCS1)C2=O` in your reply.
OUTPUT: 89.6

INPUT: Supply measured viability at 28.5 h, 10 µM of O=c1c(N2CCN(CCOc3ccccc3)CC2)nccn1CCOc1cc(F)c(F)cc1F [CBK045934C] in your reply.
OUTPUT: 103

INPUT: Supply measured viability at 28.5 h, 10 µM of `CS(=O)(=O)Nc1nccnc1OC1CCN(CCc2c[nH]c3ccccc23)CC1` in your reply.
OUTPUT: 119

INPUT: Supply measured viability at 28.5 h, 10 µM of `Cc1cccc(C(=O)Oc2ccc(C(c3c(C)n[nH]c3O)c3c(C)n[nH]c3O)cc2)c1` in your reply.
OUTPUT: 102

INPUT: Supply measured viability at 28.5 h, 10 µM of `O=C(Nc1ccccc1C(=O)c1ccccc1)c1ccccn1` in your reply.
OUTPUT: 89.1

INPUT: Supply measured viability at 28.5 h, 10 µM of CC1(C(=O)Nc2cnn(Cc3ccc(F)cc3)c2)CCCO1 (centres unmarked) in your reply.
OUTPUT: 104

INPUT: Supply measured viability at 28.5 h, 10 µM of `CCOc1ccc(-c2ccnc(NC[C@@H]3CCCO3)n2)cc1C(=O)O` in your reply.
OUTPUT: 86.5

INPUT: Supply measured viability at 28.5 h, 10 µM of `Cc1ccc(Cc2cnc(NC(=O)NC3CCOCC3)s2)cc1Cl` in your reply.
OUTPUT: 82.2

INPUT: Supply measured viability at 28.5 h, 10 µM of O=C1NC2(CCc3ccccc31)CCN(C(=O)c1ccccn1)C2 (centres unmarked) in your reply.
OUTPUT: 96

INPUT: Supply measured viability at 28.5 h, 10 µM of `Fc1ccc(N2CCN(c3ncnc4[nH]cnc34)CC2)cc1` in your reply.
OUTPUT: 89.8

INPUT: Supply measured viability at 28.5 h, 10 µM of CC(C)Cn1cnc(S(=O)(=O)N2CCC(OCc3ccncc3)C2)c1 (centres unmarked) in your reply.
OUTPUT: 105

INPUT: Supply measured viability at 28.5 h, 10 µM of `O=C(NCc1ccc(F)cc1)Nc1ccccc1F` in your reply.
OUTPUT: 98.9
